Readings of Potency - loss of mucus relative to metaldehyde for the listed compounds
- Tested on: Common garden slugs (Arion distinctus)
- protocol text: slug mucosal contact test (mucus production and body weight loss)
- Assay type: in vivo
- experimental conditions: from combined mucus loss, metaldehyde = 100
parameter: Potency - loss of mucus relative to metaldehyde (%)

>>> numeric_result("CCCCCCCCCC=O")
62
>>> numeric_result("CCCCCCCC=O")
72
>>> numeric_result("CCCCCCC=O")
35
>>> numeric_result("CC1OC(C)OC(C)OC(C)O1 (stereo not shown) [Metaldehyde, reference compound]")
100

Numbers sourced from patent US20190373887A1.
